Numbers sourced from the RNAGym collection of RNA variant scans (doi:10.7554/elife.80360).

Catalogue of variants with associated self-cleavage
B1: Hairpin Ribozyme (parent)
chain: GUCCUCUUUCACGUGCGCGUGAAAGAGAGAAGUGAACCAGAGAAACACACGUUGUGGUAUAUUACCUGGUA

Variants of: B1
PROTOCOL DETAILS: self-cleavage, relative activity (ratio to wild type); higher = more cleavage; co-transcriptional
MEASURED ATTRIBUTE: self-cleavage

>>> endpoint_result("A26U U60G")
0.437
>>> endpoint_result("A64U C66A")
0.156
>>> endpoint_result("G15C A64G")
0.532
>>> endpoint_result("U7G A47G")
0.174
>>> endpoint_result("C48U G57U")
0.204
>>> endpoint_result("A30C A45G")
0.194
>>> endpoint_result("U67A G69U")
0.321
>>> endpoint_result("C10A A49G")
0.357
>>> endpoint_result("G25A G51U")
0.724
>>> endpoint_result("G21C C66A")
0.27
>>> endpoint_result("A22C C65G")
0.116
>>> endpoint_result("U9G U53G")
0.656
>>> endpoint_result("A36C C38A")
0.253
>>> endpoint_result("A61U U67A")
0.178
>>> endpoint_result("U14C G56U")
0.126
>>> endpoint_result("G1U A30U")
0.162
>>> endpoint_result("G19U A22G")
0.715
>>> endpoint_result("A45U G51C")
0.0528
>>> endpoint_result("A71U")
0.796
>>> endpoint_result("C10A A64G")
0.397
>>> endpoint_result("A47U C48G")
0.137
>>> endpoint_result("U9C A39U")
0.411
>>> endpoint_result("C6G U55C")
0.156
>>> endpoint_result("A44C A59C")
0.15
>>> endpoint_result("U5G A26U")
0.51
>>> endpoint_result("C4G G27C")
0.653
>>> endpoint_result("U2G C65U")
0.163
